# measurement.target: Glucagon-like peptide 1 receptor (Homo sapiens)
# Sequence (P43220 whole entry): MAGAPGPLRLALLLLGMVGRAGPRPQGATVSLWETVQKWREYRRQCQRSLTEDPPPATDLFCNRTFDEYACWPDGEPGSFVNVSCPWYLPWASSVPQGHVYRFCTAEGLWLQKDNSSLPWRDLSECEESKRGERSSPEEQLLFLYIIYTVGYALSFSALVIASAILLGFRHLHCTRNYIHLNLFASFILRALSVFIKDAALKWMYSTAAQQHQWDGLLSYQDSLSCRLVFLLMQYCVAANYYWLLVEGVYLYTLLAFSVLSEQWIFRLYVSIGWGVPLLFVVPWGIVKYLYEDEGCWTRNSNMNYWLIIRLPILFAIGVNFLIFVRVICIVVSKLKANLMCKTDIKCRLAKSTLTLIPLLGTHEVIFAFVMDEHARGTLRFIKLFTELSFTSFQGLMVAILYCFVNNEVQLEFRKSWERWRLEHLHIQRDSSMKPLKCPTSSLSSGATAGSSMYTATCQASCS
# experiment.notes: Binding affinity to GLP-1 receptor (unknown origin) assessed as equlibrium constant by surface plasmon resonance analysis
[ ]: non-standard residue; d: D form. Aun = NCCCCCCCCCCC(=O)O; AEEA = NCCOCCOCC(=O)O; Aib = CC(C)(N)C(=O)O; Aoc = NCCCCCCCC(=O)O
As shown below, each of these substances has a reported pKd value.
Note on units: pKd is unitless, being -log10 of a concentration expressed in mol/L.

These solved cases illustrate the format of a correct answer.
[[record]]
substance = "H-[Aib]EGTFTSDVSSYLEGQAAKEFIAWLVKG[Aun]GVKALIDEILAA-NH2"
measurement_target = "Glucagon-like peptide 1 receptor (Homo sapiens)"
experimental_result = 5.84

[[record]]
substance = "H-[Aib]EGTFTSDVSSYLEGQAAKEFIAWLVKG[Aoc][AEEA]GVKALIDEILAA-NH2"
measurement_target = "Glucagon-like peptide 1 receptor (Homo sapiens)"
experimental_result = 6.27

[[record]]
substance = "H-[Aib]EGTFTSDVSSYLEGQAAKEFIAWLVKG[AEEA]GVKALIDEILAA-NH2"
measurement_target = "Glucagon-like peptide 1 receptor (Homo sapiens)"
experimental_result = 6.00

[[record]]
substance = "H-[Aib]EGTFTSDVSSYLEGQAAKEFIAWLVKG[Aoc]GVKALIDEILAA-NH2"
measurement_target = "Glucagon-like peptide 1 receptor (Homo sapiens)"
experimental_result = 6.15

[[record]]
substance = "H-[Aib]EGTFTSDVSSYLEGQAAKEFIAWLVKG[AEEA][AEEA]GVKALIDEILAA-NH2"
measurement_target = "Glucagon-like peptide 1 receptor (Homo sapiens)"
experimental_result = 6.04


Next item in the queue.
pKd recorded for this substance, `H-[Aib]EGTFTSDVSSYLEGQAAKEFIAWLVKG[Aun][AEEA]GVKALIDEILAA-NH2` , is 5.83

---

# measurement.target: Albumin (Homo sapiens, UniProt P02768)
# Sequence (P02768 whole entry): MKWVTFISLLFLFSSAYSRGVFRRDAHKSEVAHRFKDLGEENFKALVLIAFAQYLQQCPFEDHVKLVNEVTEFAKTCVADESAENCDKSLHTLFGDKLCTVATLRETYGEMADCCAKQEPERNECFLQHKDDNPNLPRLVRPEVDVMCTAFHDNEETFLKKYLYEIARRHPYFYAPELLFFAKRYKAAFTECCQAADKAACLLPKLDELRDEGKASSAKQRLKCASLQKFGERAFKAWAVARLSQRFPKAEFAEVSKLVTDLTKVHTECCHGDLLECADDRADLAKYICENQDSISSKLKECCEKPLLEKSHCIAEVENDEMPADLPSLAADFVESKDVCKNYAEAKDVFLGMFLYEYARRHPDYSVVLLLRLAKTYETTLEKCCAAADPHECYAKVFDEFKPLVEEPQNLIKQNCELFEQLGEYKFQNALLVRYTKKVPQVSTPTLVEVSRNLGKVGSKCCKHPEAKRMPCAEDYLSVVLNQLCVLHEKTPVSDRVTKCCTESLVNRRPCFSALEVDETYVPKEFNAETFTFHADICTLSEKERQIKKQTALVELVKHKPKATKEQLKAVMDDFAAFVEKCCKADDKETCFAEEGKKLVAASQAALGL
# experiment.notes: Binding affinity to albumin (unknown origin) by HPLC analysis
[ ]: non-standard residue; d: D form. Aun = NCCCCCCCCCCC(=O)O; AEEA = NCCOCCOCC(=O)O; Aib = CC(C)(N)C(=O)O; Aoc = NCCCCCCCC(=O)O
measure: Activity

These solved cases illustrate the format of a correct answer.
[[record]]
substance = "H-[Aib]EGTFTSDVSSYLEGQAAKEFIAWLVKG[Aoc][AEEA]GVKALIDEILAA-NH2"
experimental_result = "66.5%"

[[record]]
substance = "H-[Aib]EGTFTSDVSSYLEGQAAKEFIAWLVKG[Aoc]GVKALIDEILAA-NH2"
experimental_result = "77.4%"

[[record]]
substance = "SEMAGLUTIDE"
experimental_result = "> 99%"

[[record]]
substance = "H-[Aib]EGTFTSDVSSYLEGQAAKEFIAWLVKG[Aun][AEEA]GVKALIDEILAA-NH2"
experimental_result = "76.4%"

[[record]]
substance = "H-[Aib]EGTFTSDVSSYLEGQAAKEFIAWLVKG[AEEA]GVKALIDEILAA-NH2"
experimental_result = "75.4%"


Activity recorded for this substance, `H-[Aib]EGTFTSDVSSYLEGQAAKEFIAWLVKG[Aun]GVKALIDEILAA-NH2` , is 89.2%

Activity recorded for this substance, `H-[Aib]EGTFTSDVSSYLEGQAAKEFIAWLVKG[AEEA][AEEA]GVKALIDEILAA-NH2` , is 65.6%
